Reference source: patent US11254688B2

Collected pIC50 values appear next to each entry.
biological target: hGOAT (Homo sapiens, UniProt Q96T53); test: Determination of hGOAT activity in HEK293 cells after incubation with test compound (acyl-ghrelin ELISA); settings: HEK293 cells stably transfected with preproghrelin and human GOAT; octanoate-BSA 100 μM; 5 hours incubation; acyl-ghrelin in medium by ELISA; 8 compound concentrations
Sequence (Q96T53 whole entry): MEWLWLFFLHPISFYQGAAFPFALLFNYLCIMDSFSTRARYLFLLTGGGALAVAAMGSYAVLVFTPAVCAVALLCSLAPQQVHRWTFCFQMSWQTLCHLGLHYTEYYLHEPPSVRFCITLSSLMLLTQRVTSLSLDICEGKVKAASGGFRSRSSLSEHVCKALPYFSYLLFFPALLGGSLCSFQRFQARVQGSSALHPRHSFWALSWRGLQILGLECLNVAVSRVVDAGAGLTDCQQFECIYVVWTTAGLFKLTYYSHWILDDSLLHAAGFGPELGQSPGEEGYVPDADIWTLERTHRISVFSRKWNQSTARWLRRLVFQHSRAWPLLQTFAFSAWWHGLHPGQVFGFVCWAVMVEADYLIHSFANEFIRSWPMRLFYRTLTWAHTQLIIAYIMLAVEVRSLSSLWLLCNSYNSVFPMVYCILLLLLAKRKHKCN
Bear in mind: pIC50 is minus log10 of a mol/L concentration; give just that figure.

// worked examples, pIC50 included
Cc1nc2nonc2c(N)c1Cc1ccc(C(=O)NCc2cnccn2)cc1
8.44
Cc1nc2nonc2c(N)c1Cc1ccc(C(=O)NCc2ccnnc2)cc1
8.26
Cc1nc2nonc2c(N)c1Cc1ccc(C2(C#N)CCCC2)nc1
10.01
Cc1nc2nonc2c(N)c1Cc1ccc(C(=O)N(C)C)cc1
9.18
Cc1nc2nonc2c(N)c1Cc1cccn2cnnc12
8.47
Cc1nc2nonc2c(N)c1Cc1ccc(F)c(C(N)=O)c1
8.69
Cc1nc2nonc2c(N)c1Cc1ccc(C(C)(C)C(N)=O)nc1
9.26
Cc1nc2nonc2c(N)c1Cc1ccc(Br)c(C(N)=O)c1
8.65
Cc1nc2nonc2c(N)c1Cc1ccc(C(F)(F)F)c(C(N)=O)c1
8.10
COc1cccc(Cc2c(C)nc3nonc3c2N)c1
9.17

Prompt: For `Cc1nc2nonc2c(N)c1Cc1ccc(O)cc1` , what is its reported pIC50?
Completion: 9.23

Prompt: Ok, now `Cc1nc2nonc2c(N)c1Cc1ccnc(OC(F)F)c1`
Completion: 8.52
